# System: BT549
# MEASUREMENT_NOTES: Cell proliferation MTT assay
# Type: cell-based
# CONDITION_DESCRIPTION: BT549, 7 days, read-out: 7 day IC50
# Procedure: Cells were seeded in 12-well plates at densities ranging from 10000-30000 cells/well and after 24 hours cells were treated with 10, 40 and 100 nM THZ1 in triplicate. After 7 days the cells were imaged using Zeiss Axiovert 200 microscope using a 20× objective lens. […] After 2 and 7 days the growth of the cells was measured by MTT assay. All results were presented as mean±standard deviation of 4-8 parallel assessments. […] IC50 values were calculated for MTT assays using CompuSyn software.
MEASURED_PARAMETER: pIC50
pIC50 is a log-scale quantity: -log10 of the concentration expressed in molar.

Form: compound = CN(C)C/C=C/C(=O)Nc1ccc(C(=O)Nc2cccc(Nc3ncc(Cl)c(-c4c[nH]c5ccccc45)n3)c2)cc1 ; pIC50 = 8.10

Every entry's value here was drawn from patent US10913983B2.
